compounds and their reported IC50
biological target: human PCSK9 (Homo sapiens); assay: PCSK9 ligand binding assay (TR-FRET): interference with binding of human PCSK9 to human LDLR; conditions: Human PCSK9 Alexa Fluor 647 / Human LDLR extracellular domain-Europium Kryptate
Supply the numeric figure in nM, leaving out any unit text.

Answered examples (2):
COC[C@@H]1NC(=O)[C@H](C)N(Cc2c(F)cc(Cl)cc2Oc2ccc(-c3cnc(CN(C)C)n3C)nc2)C(=O)C[C@@H](CC(F)(F)F)C(=O)N2CCC[C@@](Cc3ccc(Cl)cc3)(C2)N(C)C1=O 1.37
COC[C@@H]1NC(=O)[C@H](C)N(Cc2ccc(Cl)cc2Oc2ccc(-c3cnc(CN(C)C)n3C)cc2)C(=O)C[C@@H](Cc2cccc(C)n2)C(=O)N2CCC[C@@](Cc3ccc(Cl)cc3)(C2)NC1=O 0.558

Item under review: C[C@H]1C(=O)N[C@@H](CO)C(=O)N[C@@]2(Cc3ccc(Cl)cc3)CCCN(C2)C(=O)[C@H](Cc2c(F)cc(F)cc2F)CC(=O)N1Cc1ccc(Cl)cc1Oc1ccc(-c2cnc(CN(C)C)n2C)cc1 . Reported IC50?
0.568

Can you look up the measured IC50 of COC[C@@H]1NC(=O)[C@H](C)N(Cc2ccc(Cl)cc2Oc2ccc(-c3cnc(CN(C)C)n3C)cc2)C(=O)C[C@@H](CC(F)(F)F)C(=O)N2CCC[C@@](Cc3ccc(Cl)cc3)(C2)NC1=O for me?
0.847

Given the compound COC[C@@H]1NC(=O)[C@H](C)N(Cc2ccc(Cl)cc2Oc2ccc(-c3cnc(CN4CCC4)n3C)cc2)C(=O)C[C@@H](CC(F)(F)F)C(=O)N2CCC[C@@](Cc3ccc(Cl)cc3)(C2)NC1=O , what is its reported IC50?
1.05

Which IC50 reading was recorded for the compound COC[C@@H]1NC(=O)[C@H](C)N(Cc2ccc(Cl)cc2Oc2ccc(-c3cnc(CN(C)C)n3C)cc2)C(=O)C[C@@H](Cc2ncco2)C(=O)N2CCC[C@@](Cc3ccc(Cl)cc3)(C2)NC1=O ?
0.914

Any idea what IC50 was measured for COC[C@@H]1NC(=O)[C@H](C)N(Cc2ccc(Cl)cc2Oc2ccc(-c3cnc(CNC(C)(C)C)n3C)cc2)C(=O)C[C@@H](Cc2ccccc2)C(=O)N2CCC[C@@](Cc3ccc(Cl)cc3)(C2)NC1=O ?
0.75

Which IC50 is listed for COC[C@@H]1NC(=O)[C@H](C)N(Cc2c(F)cc(Cl)cc2Oc2ccc(-c3cnc(CN(C)C)n3C)nc2)C(=O)C[C@@H](CC(F)(F)F)C(=O)N2CCC[C@@](Cc3ccc(Cl)cc3)(C2)NC1=O ?
0.465

Which IC50 is reported for this compound? COC[C@@H]1NC(=O)[C@H](C)N(Cc2c(F)cc(Cl)cc2Oc2ccc(-c3cnc(CN(C)C(C)(C)C)n3C)cc2)C(=O)C[C@@H](C2CC(F)(F)C2)C(=O)N2CCC[C@@](Cc3ccc(Cl)cc3)(C2)N(C)C1=O
0.85

* * *

target: human PCSK9 (Homo sapiens, UniProt Q8NBP7); assay: PCSK9 ligand binding assay (TR-FRET): interference with binding of human PCSK9 to human LDLR; conditions: Human PCSK9 Alexa Fluor 647 / Human LDLR extracellular domain-Europium Kryptate
Sequence (Q8NBP7 153-692): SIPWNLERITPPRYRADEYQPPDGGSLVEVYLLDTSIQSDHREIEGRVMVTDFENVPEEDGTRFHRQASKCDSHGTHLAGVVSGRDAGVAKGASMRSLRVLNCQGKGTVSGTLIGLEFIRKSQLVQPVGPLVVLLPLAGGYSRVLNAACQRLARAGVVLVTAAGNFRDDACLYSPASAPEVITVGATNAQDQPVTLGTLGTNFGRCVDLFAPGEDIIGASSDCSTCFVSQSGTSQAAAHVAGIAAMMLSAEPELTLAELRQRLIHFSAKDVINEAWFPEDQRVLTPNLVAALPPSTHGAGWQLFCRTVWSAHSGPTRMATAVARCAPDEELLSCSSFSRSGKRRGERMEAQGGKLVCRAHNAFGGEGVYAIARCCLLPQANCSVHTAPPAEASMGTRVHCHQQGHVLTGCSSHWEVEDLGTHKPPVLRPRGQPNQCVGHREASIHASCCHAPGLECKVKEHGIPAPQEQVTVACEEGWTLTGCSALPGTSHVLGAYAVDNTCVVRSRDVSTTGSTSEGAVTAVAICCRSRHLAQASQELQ
Sequence (Q8NBP7 31-152 partner limits assumed): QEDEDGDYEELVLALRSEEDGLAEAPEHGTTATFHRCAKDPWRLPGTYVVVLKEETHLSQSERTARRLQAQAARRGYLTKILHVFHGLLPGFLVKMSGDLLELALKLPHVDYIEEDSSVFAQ
Assay Metric: IC50 (nM)
Supply the numeric figure in nM, leaving out any unit text.

Molecule	Unit Spec	IC50
C[C@H]1C(=O)N[C@@H](CO)C(=O)N[C@@]2(Cc3ccc(Cl)cc3)CCCN(C2)C(=O)[C@H](CC2CC2)CC(=O)N1Cc1c(F)cc(Cl)cc1Oc1ccc(-c2cnc(CNC(C)(C)C)n2C)cc1 [Compound 154]	nM	0.71
C[C@H]1C(=O)N[C@@H](CC(=O)O)C(=O)N(C)[C@H](Cc2ccc(Cl)cc2)CN(C)C(=O)[C@H](Cc2ccccc2)CC(=O)N1Cc1ccc(Cl)cc1Oc1ccc(-c2cnc(CN3CCCC3)n2C)cc1.Cl [Compound 135]	nM	631

Now look at this one.
# IC50 lookup, item CN(C)Cc1ncc(-c2ccc(Oc3cc(Cl)ccc3CN3C(=O)C[C@@H](Cc4ccccc4)C(=O)N4CCC[C@@](Cc5ccc(Cl)cc5)(C4)NC(=O)[C@H](CO)NC(=O)[C@@H]3CCN)cc2)n1C [Compound 178]
2.66

* * *

Target: human PCSK9 (Homo sapiens, UniProt Q8NBP7)
Test: PCSK9 ligand binding assay (TR-FRET): interference with binding of human PCSK9 to human LDLR
Conditions: efficacy (Amax), 100% = 1 uM unlabeled human PCSK9, 0% = DMSO
Procedure: Example 10: PCSK9 Ligand Binding Assay The PCSK9 binding of the compounds of the disclosure were measured using a time resolved fluorescence resonance energy transfer (TR-FRET) assay. This time resolved fluorescence resonance energy transfer (TR-FRET) assay measures the ability of a compound of the present disclosure to interfere with the binding of human PCSK9 to human LDLR, providing measures of both potency (IC50) and efficacy (Amax). Human PCSK9 Alexa Fluor 647 […]
Reported Max % inhibition values for a set of compounds
API: value field is a number in %; no unit string.

Compound	Max % inhibition / %
C[C@H]1C[C@H]([C@@H]2CC(=O)N(Cc3ccc(Cl)cc3Oc3ccc(-c4cnc(CN5CCCC5)n4C)cc3)[C@@H](C)C(=O)N[C@@H](CO)C(=O)N(C)[C@H](Cc3ccc(Cl)cc3)CN(C)C2=O)c2ccccc21.Cl [Compound 93]	103.0
COC[C@@H]1NC(=O)[C@H](C)N(Cc2ncc(Cl)cc2Oc2ccc(-c3cnc(CN(C)C)n3C)nc2)C(=O)C[C@@H](Cc2ccccc2)C(=O)N2CCC[C@@](Cc3ccc(Cl)cc3)(C2)N(C)C1=O [Compound 85]	101.7
COC[C@@H]1NC(=O)[C@H](C)N(Cc2ccc(Cl)cc2Oc2ccc(-c3cnc(CN4CCCC4)n3C)cc2)C(=O)C[C@@H](Cc2ccccc2)C(=O)N(C)C[C@@H](Cc2ccc(Cl)cc2)N(C)C1=O.Cl [Compound 114]	95.9
COC[C@@H]1NC(=O)[C@H](C)N(Cc2ccc(Cl)cc2Oc2ccc(-c3cnc(CN(C)C)n3C)cc2)CC[C@@H](Cc2ccccc2)C(=O)N2CCC[C@@](Cc3ccc(Cl)cc3)(C2)NC1=O.O=C(O)C(F)(F)F [Compound 120]	102.4
COC[C@@H]1NC(=O)[C@H](C)N(Cc2ccc(Cl)cc2Oc2ccc(-c3cnc(CN(C)C)n3C)cc2)C(=O)C[C@@H](CC(F)(F)F)C(=O)N2CCC[C@@](Cc3ccc(Cl)cc3)(C2)N(C)C1=O [Compound 9]	111.3

For COC[C@@H]1NC(=O)[C@H](C)N(Cc2c(F)cc(Cl)cc2Oc2ccc(-c3cnc(CNC4CCC4)n3C)cc2)C(=O)C[C@@H](CC(F)(F)F)C(=O)N2CCC[C@@](Cc3ccc(Cl)cc3)(C2)NC1=O [Compound 45] , what is its reported Max % inhibition?
103.7

Suppose we examine the compound COC[C@@H]1NC(=O)[C@H](CCF)N(Cc2ccc(Cl)cc2Oc2ccc(-c3cnc(CN(C)C)n3C)cc2)C(=O)C[C@@H](Cc2ccccc2)C(=O)N2CCC[C@@](Cc3ccc(Cl)cc3)(C2)NC1=O.Cl [Compound 105] ; what Max % inhibition value has been reported?
97.0

Recorded Max % inhibition of CC(C)[C@H]1CC(=O)N(Cc2ccc(Cl)cc2Oc2ccc(-c3cnc(CN(C)C)n3C)cc2)[C@@H](C)C(=O)N[C@@H](CO)C(=O)N[C@@]2(Cc3ccc(Cl)cc3)CCCN(C2)C1=O.Cl [Compound 133] , please.
76.9

Give its Max % inhibition value. Item: C[C@H]1C(=O)N[C@@H](CO)C(=O)N[C@@]2(Cc3ccc(Cl)cc3)CCCN(C2)C(=O)[C@H](Cc2ccccc2)CC(=O)N1Cc1ccc(Cl)cc1Oc1ccc(-c2cnc(CN(C)C)n2C)cc1 [Compound 50]
108.7

Any idea what Max % inhibition was measured for C[C@H]1C(=O)N[C@@H](CO)C(=O)N[C@@]2(Cc3ccc(Cl)cc3)CCCN(C2)C(=O)[C@H](CC(F)(F)F)CC(=O)N1Cc1ccc(Cl)cc1Oc1ccc(-c2cnc(CN(C)C(C)(C)C)n2C)cc1 [Compound 143] ?
113.6

Which Max % inhibition reading was recorded for the compound C[C@H]1C(=O)N[C@@H](CO)C(=O)N[C@@]2(Cc3ccc(Cl)cc3)CCCN(C2)C(=O)[C@H](Cc2c(F)cccc2F)CC(=O)N1Cc1c(F)cc(Cl)cc1Oc1ccc(-c2cnc(CN(C)C)n2C)cc1 [Compound 34] ?
101.6

So what does the record say about Max % inhibition for COC[C@@H]1NC(=O)[C@H](CCCCN2CCOCC2)N(Cc2ccc(Cl)cc2Oc2ccc(-c3cnc(CN(C)C)n3C)cc2)C(=O)C[C@@H]([C@H]2CCc3ccccc32)C(=O)N(C)C[C@@H](Cc2ccc(Cl)cc2)N(C)C1=O.Cl [Compound 131] ?
91.9

Sample CC[C@@H]1CC(=O)N(Cc2ccc(Cl)cc2Oc2ccc(-c3cnc(CN4CCCC4)n3C)cc2)[C@@H](C)C(=O)N[C@@H](CO)C(=O)N[C@@]2(Cc3ccc(Cl)cc3)CCCN(C2)C1=O [Compound 26] — what was its Max % inhibition?
98.3

Which value of Max % inhibition has been reported for COC[C@@H]1NC(=O)[C@H](C)N(Cc2ccc(Cl)cc2Oc2ccc(-c3cnc(CN4CCC4)n3C)cc2)C(=O)C[C@@H](CC(F)(F)F)C(=O)N2CCC[C@@](Cc3ccc(Cl)cc3)(C2)NC1=O [Compound 33] in the records?
113.0

Would you kindly share the measured Max % inhibition for C[C@H]1C(=O)N[C@@H](CO)C(=O)N[C@@]2(Cc3ccc(Cl)cc3)CCCN(C2)C(=O)[C@H](Cc2ccccc2)CC(=O)N1Cc1c(F)cc(Cl)cc1Oc1ccc(-c2cnc(CN(C)C)n2C)cc1F [Compound 87] ?
111.7

Need Max % inhibition, item COC[C@@H]1NC(=O)[C@H](C)N(Cc2ccc(Cl)cc2Oc2ccc(-c3cnc(CN4CCCC4)n3C)cc2)C(=O)C[C@@H](Cc2ccccc2)C(=O)NC[C@@H](Cc2ccc(Cl)cc2)N(C)C1=O.Cl [Compound 92]
104.1

Reported Max % inhibition, compound COC[C@@H]1NC(=O)[C@H](C)N(Cc2c(F)cc(Cl)cc2Oc2ccc(-c3cnc(CN(C)C)n3C)cc2)C(=O)C[C@@H](C2CCOCC2)C(=O)N2CCC[C@@](Cc3ccc(Cl)cc3)(C2)N(C)C1=O [Compound 174] : ____
110.7

Sample C[C@H]1C(=O)N[C@@H](CO)C(=O)N[C@@]2(Cc3ccc(Cl)cc3)CCCN(C2)C(=O)[C@H]([C@@H]2CCc3ccccc32)CC(=O)N1Cc1ccccc1Oc1ccc(-c2cnc(CN(C)C)n2C)cc1 [Compound 55] — what was its Max % inhibition?
96.0
